Tested on: MS2 coat protein
MEASUREMENT_NOTES: apparent Kd, MS2 coat protein; higher = weaker binding; RNA-MaP array; FMN 200 µM where present
DETAILS: ligand present: flavin mononucleotide; designed as: ON switch for flavin mononucleotide
The following sequences are listed with their measured apparent Kd values.
Just the number please, in nM, no unit attached.

Study these solved cases before continuing.
PRIMARY_SEQUENCE: AGUGUCAUCGAGAAGGCCUUGACAUGAGGAUCACCCAUGUUGUAACAUGGGAGGAUAUCGAUGAUACAGCUACGUUUCGUAGCA
OBSERVED_RESULT: 47.3
--
PRIMARY_SEQUENCE: AGUGUCAUCGAGAAGGCCUCAACAUGAGGAUCACCCAUGUUGCAAAAUGGGAGGAUAUCGCGCGAAAAGCUACGUUUCGUAGCA
OBSERVED_RESULT: 11.6
--
PRIMARY_SEQUENCE: UGUUAUUAGACAGGAUAUUGAAUGUUAAGUAUUAACAUGAGGAUCACCCAUGUAUUUCAUUCGUACAAGAAGGGUCAUGUUCCU
OBSERVED_RESULT: 202
--
PRIMARY_SEQUENCE: UGGAACUAGGGAGGAUAUGGGAAGAUACAUGAGGAUCACCCAUGUUUAAGAAUGCCGAGAGGCAACUAGAAGGCCCUAGUACCU
OBSERVED_RESULT: 20.3
--
PRIMARY_SEQUENCE: ACAUGAGGAUCACCCAUGUGAACAUAGGAUAUUGGUGAUCAGGCGUGUUAUACAGGAUAUGUCUGCGAGAAGGGUGCACGUUGC
OBSERVED_RESULT: 231
--
PRIMARY_SEQUENCE: UGUAAUUAGUAAGGAUAUACUAGUGAUUAGCUUGUAGAAGGUACAGUCUUAUGUAUAACAAAUUAACAUGAGGAUCACCCAUGU
OBSERVED_RESULT: 8.74

// moving on: another record for apparent Kd
Problem: Requested field: apparent Kd. Item: AUACCUUAUGAGAAGGCGGUCAUGAAACAUGAUCGAGGAUAUCAUGUAAACAUGAGGAUCACCCAUGUAUGGGUAUUAUGGUAG
Result: 12.3

Attribution: the EternaBench riboswitch data
